experiment: Stability of the compound at 4 degreeC at 10^-4 M incubated for 6 to 12 days under dark condition by HPLC method; format: physicochemical; settings: 100 µM
Readout Type: Stability

COc1cc(/C=C/C(=O)CC(=O)/C=C/c2ccc(O)c(OC)c2)ccc1O	Stable
COc1cc(/C=C/C(C)=O)ccc1O [DEHYDROZINGERONE]	Stable
C#CCOc1ccc(/C=C/C(=O)CC(=O)/C=C/c2ccc(OCC#C)c(OC)c2)cc1OC	Stable

###

assay: Stability of the compound at -20 degreeC at 10^-4 M incubated for 6 to 12 days under dark condition by HPLC method; format: physicochemical; conditions: 100 µM
Readout Type: Stability

C#CCOc1ccc(/C=C/C(=O)CC(=O)/C=C/c2ccc(OCC#C)c(OC)c2)cc1OC	Stable
COc1cc(/C=C/C(=O)CC(=O)/C=C/c2ccc(O)c(OC)c2)ccc1O	Stable
COc1cc(/C=C/C(C)=O)ccc1O [DEHYDROZINGERONE]	Stable

###

experiment: Antiproliferative activity against human NCI-H460 cells measured after 48 hrs by sulforhodamine B assay; type: functional; settings: NCI-H460, 48 h
Readout Type: GI50 (µM)
State the answer as a number, implicitly in µM.

COc1cc(/C=C/C(=O)CC(=O)/C=C/c2ccc(O)c(OC)c2)ccc1O [CURCUMIN]	27.3

Please turn your attention to the following entry.
[ask] Please give measured GI50 of the following entry: COc1cccc2c1C(=O)c1c(O)c3c(c(O)c1C2=O)C[C@@](O)(C(=O)CO)C[C@@H]3O[C@H]1C[C@H](N)[C@H](O)[C@H](C)O1 [DOXORUBICIN]
[reply] 0.02

###

assay: Stability of the compound in HEPES medium at 1.5 10^-3 M incubated for 5 to 30 mins under dark condition by HPLC method; format: physicochemical
Readout Type: Stability

COc1cc(/C=C/C(=O)CC(=O)/C=C/c2ccc(O)c(OC)c2)ccc1O [CURCUMIN]	Stable
COc1cc(/C=C/C(C)=O)ccc1O [DEHYDROZINGERONE]	Stable
COc1cc(/C=C/C(=O)/C=C/c2ccc(O)c(OC)c2)ccc1O	Stable
C#CCOc1ccc(/C=C/C(=O)CC(=O)/C=C/c2ccc(OCC#C)c(OC)c2)cc1OC	Stable

###

assay: Chemical stability of the compound in pH 6.7 potassium phosphate buffer at 10^-4 M incubated for overnight by HPLC method; type: physicochemical; details: pH 6.7, 100 µM
Readout Type: Stability

C#CCOc1ccc(/C=C/C(=O)CC(=O)/C=C/c2ccc(OCC#C)c(OC)c2)cc1OC	Stable
COc1cc(/C=C/C(C)=O)ccc1O [DEHYDROZINGERONE]	Stable
COc1cc(/C=C/C(=O)/C=C/c2ccc(O)c(OC)c2)ccc1O	Stable

###

assay: Chemical stability of the compound in pH 5 sodium acetate buffer at 10^-4 M incubated for overnight by HPLC method; assay type: physicochemical; conditions: pH 5, 100 µM
Readout Type: Stability

COc1cc(/C=C/C(C)=O)ccc1O [DEHYDROZINGERONE]	Stable
C#CCOc1ccc(/C=C/C(=O)CC(=O)/C=C/c2ccc(OCC#C)c(OC)c2)cc1OC	Stable
COc1cc(/C=C/C(=O)/C=C/c2ccc(O)c(OC)c2)ccc1O	Stable

###

test: Chemical stability of the compound in pH 9.1 sodium boric acid buffer at 10^-4 M incubated for overnight by HPLC method; assay type: physicochemical; conditions: pH 9.1, 100 µM
Readout Type: Stability

C#CCOc1ccc(/C=C/C(=O)CC(=O)/C=C/c2ccc(OCC#C)c(OC)c2)cc1OC	Stable
COc1cc(/C=C/C(C)=O)ccc1O [DEHYDROZINGERONE]	Stable
COc1cc(/C=C/C(=O)/C=C/c2ccc(O)c(OC)c2)ccc1O	Stable
